molecular target: Prostaglandin G/H synthase 1 (Ovis aries, UniProt P05979); experiment: Inhibition of ovine COX1 using arachidonic acid substrate assessed as PGE2 production ELISA method after 2 mins
Sequence (P05979 whole entry): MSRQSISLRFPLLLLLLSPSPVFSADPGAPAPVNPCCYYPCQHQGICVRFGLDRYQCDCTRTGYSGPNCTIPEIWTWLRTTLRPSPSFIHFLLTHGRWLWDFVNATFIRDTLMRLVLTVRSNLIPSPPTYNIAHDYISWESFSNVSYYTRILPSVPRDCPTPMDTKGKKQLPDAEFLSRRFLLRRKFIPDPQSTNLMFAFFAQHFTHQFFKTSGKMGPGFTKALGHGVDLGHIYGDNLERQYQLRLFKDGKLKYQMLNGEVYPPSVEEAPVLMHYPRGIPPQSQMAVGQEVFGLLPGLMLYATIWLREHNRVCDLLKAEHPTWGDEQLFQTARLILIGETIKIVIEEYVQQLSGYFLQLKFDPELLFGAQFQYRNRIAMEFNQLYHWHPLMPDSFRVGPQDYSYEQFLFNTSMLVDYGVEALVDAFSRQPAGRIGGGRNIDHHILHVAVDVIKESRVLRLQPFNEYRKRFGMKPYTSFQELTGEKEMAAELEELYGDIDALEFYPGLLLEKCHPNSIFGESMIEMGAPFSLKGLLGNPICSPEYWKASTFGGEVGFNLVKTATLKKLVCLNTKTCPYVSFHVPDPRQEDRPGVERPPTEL
pIC50: −log10 of the molar value.
MEASURED_PROPERTY: pIC50

See these solved cases before continuing.
SMILES_TEXT: CCOC(OCC)c1ccc(/C=C2\Cc3ccccc3C2=O)cc1
pIC50: 5.65
--
SMILES_TEXT: CN(C)c1ccc(/C=C2\COC/C(=C\c3ccc(N(C)C)cc3[N+](=O)[O-])C2=O)c([N+](=O)[O-])c1
pIC50: 6.14
--
SMILES_TEXT: O=C(/C=C/c1ccc(N2CCCC2)cc1)/C=C/c1ccc(N2CCCC2)cc1
pIC50: 4.31

1: O=C1/C(=C/c2ccc(N3CCCC3)cc2)CCc2ccccc21
2: CN(C)c1ccc(/C=C2\Cc3ccccc3C2=O)c([N+](=O)[O-])c1
## Input // compare measured pIC50, left 1 , right 2 , return larger Respond using the label that marks the chosen record.
## Output 2
(2: 5.00, 1: 4.48)
